Taken from ChEMBL document CHEMBL1287771.

# Test system: Staphylococcus aureus
# test_protocol: Antibacterial activity against efflux-resistant Staphylococcus aureus B0331 by agar microdilution method
# Type: functional
metric: log10 MIC (log10 of the value in µg/mL)
Log scale reminder: MIC in µg/mL, then log10 taken.

Input: Recorded log10 MIC for CC[C@H]1OC(=O)[C@H](C)C(=O)[C@H](C)[C@@H](O[C@@H]2O[C@H](C)C[C@H](N(C)C)[C@H]2O)[C@](C)(OCC(O)CN2CCN(c3cc4c(=O)c(C(=O)O)cn(C5CC5)c4cc3Cl)CC2)C[C@@H](C)NC(=O)[C@H](C)[C@H](O)[C@@]1(C)O (stereo partly specified) , please?
Output: -0.60

Input: Recorded log10 MIC for CC[C@H]1OC(=O)[C@H](C)C(=O)[C@H](C)[C@@H](O[C@@H]2O[C@H](C)C[C@H](N(C)C)[C@H]2O)[C@](C)(OCC=Cc2cnc3ccccc3c2)C[C@@H](C)C(=O)[C@H](C)[C@H]2NC(=O)O[C@@]21C , please?
Output: -0.60

Input: Recorded log10 MIC for CC[C@H]1OC(=O)[C@H](C)C(=O)[C@H](C)[C@@H](O[C@@H]2O[C@H](C)C[C@H](N(C)C)[C@H]2O)[C@](C)(OCC(O)CN[C@H](C)Cc2ccccc2)C[C@@H](C)NC(=O)[C@H](C)[C@H](O)[C@@]1(C)O (stereo partly specified) , please?
Output: 0.30

Input: Recorded log10 MIC for C=CCO[C@@]1(C)[C@@H](CC)OC(=O)[C@H](C)C(=O)[C@H](C)[C@@H](O[C@@H]2O[C@H](C)C[C@H](N(C)C)[C@H]2O)[C@](C)(OCC=C)C[C@@H](C)C(=O)N[C@H](C)[C@@H]1O , please?
Output: 1.20

Input: Recorded log10 MIC for CC[C@H]1OC(=O)[C@H](C)C(=O)[C@H](C)[C@@H](O[C@@H]2O[C@H](C)C[C@H](N(C)C)[C@H]2O)[C@](C)(OCC(O)CNCCc2cccnc2)C[C@@H](C)NC(=O)[C@H](C)[C@H](O)[C@@]1(C)O (stereo partly specified) , please?
Output: 0.60

Input: Recorded log10 MIC for CC[C@H]1OC(=O)[C@H](C)C(=O)[C@H](C)[C@@H](O[C@@H]2O[C@H](C)C[C@H](N(C)C)[C@H]2O)[C@](C)(OC/C=C/c2cnc3ccccc3c2)C[C@@H](C)NC(=O)[C@H](C)[C@@H]2OC(=O)O[C@]12C , please?
Output: -0.60

Input: Recorded log10 MIC for CC[C@H]1OC(=O)[C@H](C)C(=O)[C@H](C)[C@@H](O[C@@H]2O[C@H](C)C[C@H](N(C)C)[C@H]2O)[C@](C)(OCC(O)CNCC(C)C)C[C@@H](C)NC(=O)[C@H](C)[C@H](O)[C@@]1(C)O (stereo partly specified) , please?
Output: 1.81

Input: Recorded log10 MIC for C=CCO[C@]1(C)C[C@@H](C)NC(=O)[C@H](C)[C@H](O)[C@@](C)(O)[C@@H](CC)OC(=O)[C@H](C)[C@@H](O[C@@H]2C[C@@](C)(OC)[C@@H](O)[C@H](C)O2)[C@H](C)[C@H]1O[C@@H]1O[C@H](C)C[C@H](N(C)C)[C@H]1O , please?
Output: 1.81

Input: Recorded log10 MIC for CC[C@H]1OC(=O)[C@H](C)C(=O)[C@H](C)[C@@H](O[C@@H]2O[C@H](C)C[C@H](N(C)C)[C@H]2O)[C@](C)(OC/C=C/c2cccc3ccccc23)C[C@@H](C)NC(=O)[C@H](C)[C@H](O)[C@@]1(C)O , please?
Output: 0.60

Input: Recorded log10 MIC for CC[C@H]1OC(=O)[C@H](C)C(=O)[C@H](C)[C@@H](O[C@@H]2O[C@H](C)C[C@H](N(C)C)[C@H]2O)[C@](C)(OCC(O)CN2CCN(c3ccc4c(c3F)c(=O)c(C(=O)OC)cn4C3CC3)CC2)C[C@@H](C)NC(=O)[C@H](C)[C@H](O)[C@@]1(C)O (stereo partly specified) , please?
Output: 1.51

Input: Recorded log10 MIC for C=CCO[C@]1(C)C[C@@H](C)NC(=O)[C@H](C)[C@H](O)[C@@](C)(O)[C@@H](CC)OC(=O)[C@H](C)C(=O)[C@H](C)[C@H]1O[C@@H]1O[C@H](C)C[C@H](N(C)C)[C@H]1O , please?
Output: 0.90

Input: Recorded log10 MIC for CC[C@H]1OC(=O)[C@H](C)C(=O)[C@H](C)[C@@H](O[C@@H]2O[C@H](C)C[C@H](N(C)C)[C@H]2O)[C@](C)(OC/C=C/c2cnc3ccccc3c2)C[C@@H](C)NC(=O)[C@H](C)[C@H](O)[C@@]1(C)O , please?
Output: -0.30

Input: Recorded log10 MIC for CC[C@H]1OC(=O)[C@H](C)[C@@H](O[C@@H]2C[C@@](C)(OC)[C@@H](O)[C@H](C)O2)[C@H](C)[C@@H](O[C@@H]2O[C@H](C)C[C@H](N(C)C)[C@H]2O)[C@](C)(OC/C=C/NCCc2ccc([N+](=O)[O-])cc2)C[C@@H](C)NC(=O)[C@H](C)[C@H](O)[C@@]1(C)O , please?
Output: 1.51
